system: 521955-158-R2-J5-PDC complex spheroids, viability; assay: Anticancer human tumor 521955-158-R2-J5-PDC patient-derived pancreatic carcinoma cell line growth inhibition [RAS]; conditions: second compound 0.316 µM; first compound 0.1 µM; active = viability on the fitted dose curve at most 10% of control; inactive = the rest
Entry note: the call must match one of active, inactive

Illustrative cases are given below, each with its answer.
COMPOUND	CLASS
C=CC(=O)Nc1cc(Nc2nccc(-c3cn(C)c4ccccc34)n2)c(OC)cc1N(C)CCN(C)C + C=CC(=O)N1CCN(c2nc(OCC3CCCN3C)nc3c(F)c(-c4nc(N)cc(C)c4C(F)(F)F)c(Cl)cc23)C(C)C1	inactive
NC1c2ccccc2OC12CCN(c1cnc3c(N4CCCc5ncccc54)n[nH]c3n1)CC2 (stereo not given) + C#Cc1c(F)ccc2cc(O)cc(-c3ncc4c(N5CC6CCC(C5)N6)nc(OCC56CCCN5CC(F)C6)nc4c3F)c12	inactive
Cc1nc(N2CCC3(CC2)COC(C)C3N)c(CO)nc1Sc1ccnc(N)c1Cl (stereo not given) + C#Cc1c(F)ccc2cc(O)cc(-c3ncc4c(N5CC6CCC(C5)N6)nc(OCC56CCCN5CC(F)C6)nc4c3F)c12	inactive
C=CC(=O)Nc1cc(Nc2nccc(-c3cn(C)c4ccccc34)n2)c(OC)cc1N(C)CCN(C)C + C#Cc1c(F)ccc2cc(O)cc(-c3ncc4c(N5CC6CCC(C5)N6)nc(OCC56CCCN5CC(F)C6)nc4c3F)c12	inactive
CC(Nc1ccc2c(c1)OCCn1cc(N3C(=O)OCC3C(F)F)nc1-2)C(N)=O (stereo not given) + C#Cc1c(F)ccc2cc(O)cc(-c3ncc4c(N5CC6CCC(C5)N6)nc(OCC56CCCN5CC(F)C6)nc4c3F)c12	inactive
C=CC(=O)N1CCN(c2nc(OCC3CCCN3C)nc3c(F)c(-c4nc(N)cc(C)c4C(F)(F)F)c(Cl)cc23)C(C)C1 (stereo not given) + C#Cc1c(F)ccc2cc(O)cc(-c3ncc4c(N5CC6CCC(C5)N6)nc(OCC56CCCN5CC(F)C6)nc4c3F)c12	inactive

How was C[C@@H](NC(=O)c1ncnc(N)c1Cl)c1ncc(C(=O)Nc2cc(C(F)(F)F)c(Cl)cn2)s1 + C=CC(=O)N1CCN(c2nc(OCC3CCCN3C)nc3c(F)c(-c4nc(N)cc(C)c4C(F)(F)F)c(Cl)cc23)C(C)C1 classified in this test?
inactive

How was CCN1CCN(Cc2ccc(Nc3ncc(F)c(-c4cc(F)c5nc(C)n(C(C)C)c5c4)n3)nc2)CC1 + C#Cc1c(F)ccc2cc(O)cc(-c3ncc4c(N5CC6CCC(C5)N6)nc(OCC56CCCN5CC(F)C6)nc4c3F)c12 classified in this test?
inactive

How was Nc1ccn(C2OC(CO)C(O)C2(F)F)c(=O)n1 (stereo not given) + C=CC(=O)N1CCN(c2nc(OCC3CCCN3C)nc3c(F)c(-c4nc(N)cc(C)c4C(F)(F)F)c(Cl)cc23)C(C)C1 classified in this test?
inactive

How was CC(C)n1nc(-c2ccc3oc(N)nc3c2)c2c(N)ncnc21 + C#Cc1c(F)ccc2cc(O)cc(-c3ncc4c(N5CC6CCC(C5)N6)nc(OCC56CCCN5CC(F)C6)nc4c3F)c12 classified in this test?
active

* * *

test system: 521955-158-R2-J5-PDC complex spheroids, viability; assay: Anticancer human tumor 521955-158-R2-J5-PDC cell line growth inhibition [RAS]; conditions: second compound 0.316 µM; first compound 0.1 µM; active compounds read low;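 also: spheroids also contain HUVEC endothelial cells and mesenchymal stem cells as stroma; compound exposure lasted seven days before the viability read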
# Lookup of reported viability, T/C keyed by entry
Number in %, nothing else.

COMPOUND	TARGET OR SYSTEM	viability, T/C (%)
NC1c2ccccc2OC12CCN(c1cnc3c(N4CCCc5ncccc54)n[nH]c3n1)CC2 (configuration not stated) + C=CC(=O)N1CCN(c2nc(OCC3CCCN3C)nc3c(F)c(-c4nc(N)cc(C)c4C(F)(F)F)c(Cl)cc23)C(C)C1	521955-158-R2-J5-PDC complex spheroids, viability	59.2

Lab note: CCN1CCN(Cc2ccc(Nc3ncc(F)c(-c4cc(F)c5nc(C)n(C(C)C)c5c4)n3)nc2)CC1 + C=CC(=O)N1CCN(c2nc(OCC3CCCN3C)nc3c(F)c(-c4nc(N)cc(C)c4C(F)(F)F)c(Cl)cc23)C(C)C1 gave viability, T/C of 96.4

Lab note: CC(C)NCC(C(=O)N1CCN(c2ncnc3c2C(C)CC3O)CC1)c1ccc(Cl)cc1 (configuration not stated) + C=CC(=O)N1CCN(c2nc(OCC3CCCN3C)nc3c(F)c(-c4nc(N)cc(C)c4C(F)(F)F)c(Cl)cc23)C(C)C1 gave viability, T/C of 138

Lab note: CC(C)n1nc(-c2ccc3oc(N)nc3c2)c2c(N)ncnc21 + C=CC(=O)N1CCN(c2nc(OCC3CCCN3C)nc3c(F)c(-c4nc(N)cc(C)c4C(F)(F)F)c(Cl)cc23)C(C)C1 gave viability, T/C of 33.4

* * *

# Lookup of reported viability, T/C keyed by entry
test system: 521955-158-R2-J5-PDC complex spheroids, viability; assay: Anticancer human tumor 521955-158-R2-J5-PDC cell line growth inhibition [RAS]; details: second compound 0.3 µM; first compound 0.01 µM; active compounds read low;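 also: spheroids also contain HUVEC endothelial cells and mesenchymal stem cells as stroma; compound exposure lasted seven days before the viability read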
Number in %, nothing else.

Worked cases, answers included:
COMPOUND	TARGET OR SYSTEM	UNIT ANNOTATION	viability, T/C
CCN1CCN(Cc2ccc(Nc3ncc(F)c(-c4cc(F)c5nc(C)n(C(C)C)c5c4)n3)nc2)CC1 + CCn1c(-c2cc(N3CCN(C)CC3)cnc2C(C)OC)c2c3cc(ccc31)-c1csc(n1)CC(NC(=O)C1CC1C)C(=O)N1CCCC(N1)C(=O)OCC(C)(C)C2	521955-158-R2-J5-PDC complex spheroids, viability	%	8.72
Nc1ccn(C2OC(CO)C(O)C2(F)F)c(=O)n1 (configuration not stated) + CCn1c(-c2cc(N3CCN(C)CC3)cnc2C(C)OC)c2c3cc(ccc31)-c1csc(n1)CC(NC(=O)C1CC1C)C(=O)N1CCCC(N1)C(=O)OCC(C)(C)C2	521955-158-R2-J5-PDC complex spheroids, viability	%	9.3
Nc1ccn(C2OC(CO)C(O)C2(F)F)c(=O)n1 (configuration not stated) + CCn1c(-c2cccnc2C(C)OC)c2c3cc(ccc31)N1CCOC(CC(NC(=O)C(C(C)C)N(C)C(=O)C3(F)CCN(C(=O)C#CC(C)(C)N(C)C)CC3)C(=O)N3CCCC(N3)C(=O)OCC(C)(C)C2)C1	521955-158-R2-J5-PDC complex spheroids, viability	%	66.9
CC(C)n1nc(-c2ccc3oc(N)nc3c2)c2c(N)ncnc21 + CCn1c(-c2cccnc2C(C)OC)c2c3cc(ccc31)N1CCOC(CC(NC(=O)C(C(C)C)N(C)C(=O)C3(F)CCN(C(=O)C#CC(C)(C)N(C)C)CC3)C(=O)N3CCCC(N3)C(=O)OCC(C)(C)C2)C1	521955-158-R2-J5-PDC complex spheroids, viability	%	55.2
O=C(c1ccc(F)c(F)c1Nc1ccc(I)cc1F)N1CC(O)([C@@H]2CCCCN2)C1 + CCn1c(-c2cc(N3CCN(C)CC3)cnc2C(C)OC)c2c3cc(ccc31)-c1csc(n1)CC(NC(=O)C1CC1C)C(=O)N1CCCC(N1)C(=O)OCC(C)(C)C2	521955-158-R2-J5-PDC complex spheroids, viability	%	7.85

Lab note: C=CC(=O)N1CCN(c2nc(OCC3CCCN3C)nc3c(F)c(-c4nc(N)cc(C)c4C(F)(F)F)c(Cl)cc23)C(C)C1 (configuration not stated) + CCn1c(-c2cccnc2C(C)OC)c2c3cc(ccc31)N1CCOC(CC(NC(=O)C(C(C)C)N(C)C(=O)C3(F)CCN(C(=O)C#CC(C)(C)N(C)C)CC3)C(=O)N3CCCC(N3)C(=O)OCC(C)(C)C2)C1 gave viability, T/C of 78.2

Lab note: CCN1CCN(Cc2ccc(Nc3ncc(F)c(-c4cc(F)c5nc(C)n(C(C)C)c5c4)n3)nc2)CC1 + CCn1c(-c2cccnc2C(C)OC)c2c3cc(ccc31)N1CCOC(CC(NC(=O)C(C(C)C)N(C)C(=O)C3(F)CCN(C(=O)C#CC(C)(C)N(C)C)CC3)C(=O)N3CCCC(N3)C(=O)OCC(C)(C)C2)C1 gave viability, T/C of 60.8

Lab note: C=CC(=O)Nc1cc(Nc2nccc(-c3cn(C)c4ccccc34)n2)c(OC)cc1N(C)CCN(C)C + CCn1c(-c2cc(N3CCN(C)CC3)cnc2C(C)OC)c2c3cc(ccc31)-c1csc(n1)CC(NC(=O)C1CC1C)C(=O)N1CCCC(N1)C(=O)OCC(C)(C)C2 gave viability, T/C of 10.6

Lab note: CC(C)n1nc(-c2ccc3oc(N)nc3c2)c2c(N)ncnc21 + CCn1c(-c2cc(N3CCN(C)CC3)cnc2C(C)OC)c2c3cc(ccc31)-c1csc(n1)CC(NC(=O)C1CC1C)C(=O)N1CCCC(N1)C(=O)OCC(C)(C)C2 gave viability, T/C of 7.87

Lab note: C=CC(=O)N1CCN(c2nc(OCC3CCCN3C)nc3c(F)c(-c4nc(N)cc(C)c4C(F)(F)F)c(Cl)cc23)C(C)C1 (configuration not stated) + CCn1c(-c2cc(N3CCN(C)CC3)cnc2C(C)OC)c2c3cc(ccc31)-c1csc(n1)CC(NC(=O)C1CC1C)C(=O)N1CCCC(N1)C(=O)OCC(C)(C)C2 gave viability, T/C of 10.2

Lab note: C=CC(=O)Nc1cc(Nc2nccc(-c3cn(C)c4ccccc34)n2)c(OC)cc1N(C)CCN(C)C + CCn1c(-c2cccnc2C(C)OC)c2c3cc(ccc31)N1CCOC(CC(NC(=O)C(C(C)C)N(C)C(=O)C3(F)CCN(C(=O)C#CC(C)(C)N(C)C)CC3)C(=O)N3CCCC(N3)C(=O)OCC(C)(C)C2)C1 gave viability, T/C of 79.2

Lab note: O=C(c1ccc(F)c(F)c1Nc1ccc(I)cc1F)N1CC(O)([C@@H]2CCCCN2)C1 + CCn1c(-c2cccnc2C(C)OC)c2c3cc(ccc31)N1CCOC(CC(NC(=O)C(C(C)C)N(C)C(=O)C3(F)CCN(C(=O)C#CC(C)(C)N(C)C)CC3)C(=O)N3CCCC(N3)C(=O)OCC(C)(C)C2)C1 gave viability, T/C of 46.5
